B1: ATL3 (parent)
chain: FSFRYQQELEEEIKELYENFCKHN

Variants of: B1
Assay: protein stability index of a GFP-peptide fusion (GPS, HEK-293T) (PSI 1-6); higher = more stable;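 also: lentivirally expressed fusions sorted by FACS into six bins by GFP to DsRed ratio, PSI derived from sequencing read proportions per bin multiplied by bin number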
Settings: c terminus: a fixed tail appended
# protein stability index annotations
Kindly provide the number alone.

I13L	1.99
R4M	1.96
F1W	1.95

q: # return recorded protein stability index for entry Y5V
a: 1.93

q: Report measured protein stability index; entry is C21M
a: 2.32

q: Please look at this variant and report its protein stability index: Y17T
a: 3.76

q: State, in one line, measured protein stability index of F3Q
a: 4.39

q: Tell us which protein stability index value is on record for E11M
a: 2.37

q: Identify the reported protein stability index for the following entry. Q6E
a: 2.16

q: Determine from records and report protein stability index for Q6I
a: 1.57

q: # return recorded protein stability index for entry E11P
a: 2.25

q: State, in one line, measured protein stability index of C21N
a: 2.58

q: Supply measured protein stability index of N19D in your reply.
a: 1.44
